Quick list: self-cleavage per entry.
B1: OR4K15 (parent)
chain: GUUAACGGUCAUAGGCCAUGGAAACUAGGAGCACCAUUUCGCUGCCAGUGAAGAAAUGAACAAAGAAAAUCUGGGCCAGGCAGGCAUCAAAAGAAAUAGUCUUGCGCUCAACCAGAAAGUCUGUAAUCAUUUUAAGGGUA

- Variants of: B1
- Test Method Notes: self-cleavage, relative activity (ratio to wild type); higher = more cleavage; in vitro, sequencing; the parent is a self-cleaving ribozyme
API note: the answer field is a bare number with no unit suffix.

[
  {
    "Variant Name": "U37C A94U",
    "Recorded Measurement": 1.67
  }
]

Item under review: C6U A13G . Reported self-cleavage? 1.29

// same read-out, input: U19C U49C 1.6

// query: A51G A117G 2.07

What do you get for U102C U127C ? 1.56

Next variant: G8A A60G 1.53

Would you kindly repeat that for A22U A129C ? 1.58

What about this variant? U100C U132G 2.82

Follow-up entry: A91G A129G 0.58

Try the variant A23G A125G 0.4

What do you get for A86G A135U ? 2.39

Next: U2G A78U 0.4

Consider next the variant G29A U139C in the same way. 2.53

Here is the next variant: A36U A52G 1.43

Repeat for the following variant: A52U G83A 1.64

Queued: A4G A69G 1.31

Same lookup for A59G A96U , please. 0.71

Now consider A140G and answer again. 1.15

Repeat for the following variant: A64G A118G 0.89

What about U57C U87C ? 0.63

Next variant up: A64G U133G 1.05

Thanks! And U37A A68G ? 0.51
